src = the supplement of paper PMC13380429

Tested on: Vero E6
Assay: cell viability relative to DMSO; higher = less toxic
Settings: 72 h; 10000 nM
Attribute: cell viability
Write the answer as a number in %, unit excluded.

Use the examples below as a reference point.
compound=c1cc(OCCN2CCCCC2)cc(-c2n[nH]c3ccc(-c4nnc[nH]4)cc23)c1 quantity_kind="cell viability" unit_info=% assay_result=95.2
compound=O=C(CBr)N1CC([N+](=O)[O-])([N+](=O)[O-])C1 quantity_kind="cell viability" unit_info=% assay_result=102
compound=CN1CCN(c2ccc3ccccc3n2)CC1 quantity_kind="cell viability" unit_info=% assay_result=111
compound="COc1ccc(/C=C/C(=O)O)cc1 [trans-4-methoxycinnamic-acid]" quantity_kind="cell viability" unit_info=% assay_result=97.7

The compound listed as CN(C)NC(=O)CCC(=O)O [daminozide] shows cell viability equal to 103
